Provide the reported TGI of each item.
Test system: SW-620 colon
Assay: NCI tumour cell line growth inhibition, 48 h

As a guide, the following entries are already answered.
# smiles, TGI
records = [
    ("Nc1c(C(=O)Nc2ccccc2)sc2nc3c(cc12)CN(Cc1ccccc1)CC3", "> 100 µM"),
    ("O=C(NCCc1ccccc1)c1c(O)c2ccccc2[nH]c1=O", "> 100 µM"),
]

Attention now turns to another entry.
So what's the measured TGI for this one? O=C(CCCN1CCC2(CC1)CC(=O)N(N1CCCCCC1)C2=O)c1ccc(F)cc1 > 100 µM
